Listed compounds paired with reported Papp at 18 hours, 50 µM
# Experimental Details: PAMPA (parallel artificial membrane permeability assay)
# Type: in vitro ADME
# Setup Conditions: PAMPA; membrane permeation rate (Pe); 50 mM MOPSO buffer pH 6.5 with 5.0% glycocholic acid, 37° C., 18 hours; read-out: iPAMPA Pe
Positions of bridges follow the written chain, without caps; N, C: chain ends. Non-standard residues stand in square brackets, D forms with d. Residues, ends and D or L forms follow the SMILES beside them. *: point of attachment. NMeF = CN[C@@H](Cc1ccccc1)C(=O)O; hPhe = N[C@@H](CCc1ccccc1)C(=O)O; NMeL = CN[C@@H](CC(C)C)C(=O)O; NMeV = CN[C@H](C(=O)O)C(C)C; NMeA = CN[C@@H](C)C(=O)O; Piperidide = C1CCN(*)CC1; dNMeA = CN[C@H](C)C(=O)O; Sar = CNCC(=O)O

{"columns": ["Compound", "Papp at 18 hours, 50 µM"],
 "data": [
  ["CC(C)C[C@H]1C(=O)N(C)[C@@H](C(C)C)C(=O)N(C)[C@@H](C)C(=O)N[C@@H](CCc2ccccc2)C(=O)N(C)[C@@H](C)C(=O)N[C@H](C(=O)N2CCCCC2)CC(=O)N(C)[C@@H](C)C(=O)N[C@@H]([C@@H](C)O)C(=O)N(C)[C@@H](C)C(=O)N[C@@H](C)C(=O)N(C)[C@@H](Cc2ccccc2)C(=O)N1C [DP-734] ([NMeA]T[NMeA]A[NMeF][NMeL][NMeV][NMeA][hPhe][NMeA]D-Piperidide; lactam N-11)", "16 ×10⁻⁶ cm/s"],
  ["CC(C)C[C@H]1C(=O)N(C)[C@@H](Cc2ccccc2)C(=O)N(C)[C@@H](CC(C)C)C(=O)N[C@H](C(=O)N(C)[C@@H](Cc2ccccc2)C(=O)N[C@@H](Cc2ccccc2)C(=O)N2CCCCC2)CC(=O)N[C@H](C(C)C)C(=O)N[C@@H](C)C(=O)N[C@@H]([C@@H](C)O)C(=O)N(C)[C@@H](C)C(=O)N[C@@H](Cc2ccccc2)C(=O)N1C [DP-577] ([dV]AT[NMeA]F[NMeL][NMeF][NMeL]D[NMeF]F-Piperidide; lactam N-9)", "0.94 ×10⁻⁶ cm/s"],
  ["CC(C)C[C@@H]1NC(=O)[C@H](Cc2ccccc2)N(C)C(=O)CN(C)C(=O)[C@H]([C@@H](C)O)NC(=O)[C@H](CC(C)C)N(C)C(=O)[C@H](C)NC(=O)C[C@@H](C(=O)N(C)[C@@H](Cc2ccccc2)C(=O)N(C)[C@@H](C)C(=O)N2CCC[C@H]2C(=O)N(C)[C@@H](Cc2ccccc2)C(=O)N[C@@H](C)C(=O)N2CCCCC2)NC1=O [DP-565] (A[NMeL]T[Sar][NMeF]LD[NMeF][NMeA]P[NMeF]A-Piperidide; lactam N-7)", "18 ×10⁻⁶ cm/s"],
  ["CC[C@H](C)[C@@H]1NC(=O)[C@H](CC(C)C)NC(=O)[C@@H](C)N(C)C(=O)C[C@@H](C(=O)N2CCCCC2)NC(=O)[C@H](C(C)C)N(C)C(=O)[C@H](CC(C)C)NC(=O)[C@H](Cc2ccccc2)NC(=O)[C@H]([C@@H](C)O)NC(=O)[C@H](CC(C)C)NC(=O)CN(C)C(=O)[C@H](C)NC1=O [DP-475] ([dNMeA]LIA[Sar]LTFL[NMeV]D-Piperidide; lactam N-11)", "16 ×10⁻⁶ cm/s"],
  ["C=C1CCC(=O)N[C@@H](CC(C)C)C(=O)N2CCC[C@H]2C(=O)N(C)[C@@H](C(C)C)C(=O)N[C@@H](Cc2ccccc2)C(=O)N(C)CC(=O)N(C)[C@@H](CC(C)C)C(=O)N[C@@H](C)C(=O)N(C)[C@@H]([C@@H](C)CC)C(=O)N[C@H](C(=O)N2CCCCC2)Cc2ccc1cc2 [DP-880]", "34 ×10⁻⁶ cm/s"],
  ["CC(C)C[C@@H]1NC(=O)[C@H](C)NC(=O)C[C@@H](C(=O)N(C)[C@@H](C)C(=O)N[C@H](C(=O)N(C)[C@@H](Cc2ccccc2)C(=O)N(C)[C@@H](CC(C)C)C(=O)N[C@@H](C)C(=O)N2CCCCC2)[C@@H](C)O)NC(=O)[C@H](Cc2ccccc2)N(C)C(=O)[C@H](CC(C)C)N(C)C(=O)[C@H](C)NC(=O)[C@H](Cc2ccccc2)N(C)C(=O)[C@H](CC(C)C)N(C)C1=O [DP-574] (AL[NMeL][NMeF]A[NMeL][NMeF]D[NMeA]T[NMeF][NMeL]A-Piperidide; lactam N-8)", "1.2 ×10⁻⁶ cm/s"]
]}
